Where these numbers come from: patent US12195410B2

// reported grading of solution per item
Assay: Formation of solutions of nitrapyrin salts at 20% w/w nitrapyrin and grading of solutions
Format: physicochemical
Parameters: key: 5: Fully dissolved; 4: Mostly dissolved; 3: Mostly not dissolved; 2: Not dissolved; 1: Additional precipitate
Details: solvent Agnique AMD810 (H)

Known grading of solution results, listed for orientation:
Compound	grading of solution
Clc1cccc(C(Cl)(Cl)Cl)n1.Clc1cccc(C(Cl)(Cl)Cl)n1.O=C(O)c1cccc(C(=O)O)c1 [isophthalic]	3
CC(O)(P(=O)(O)O)P(=O)(O)O.Clc1cccc(C(Cl)(Cl)Cl)n1.Clc1cccc(C(Cl)(Cl)Cl)n1.Clc1cccc(C(Cl)(Cl)Cl)n1.Clc1cccc(C(Cl)(Cl)Cl)n1 [etidronic]	4
Clc1cccc(C(Cl)(Cl)Cl)n1.Clc1cccc(C(Cl)(Cl)Cl)n1.O=C(O)CC(O)C(=O)O [malic]	5
O=C(O)CCC(=O)O [succinic]	5

// next entry
Given the compound O=C(O)C(O)C(O)C(=O)O (centres unmarked) [tartaric] , what is its reported grading of solution? 5
